target: recombinant autotaxin (Homo sapiens, UniProt Q13822)
Construct: made in house; host or cells: Hi5 insect cells (baculovirus)
method notes: Autotaxin test (enzyme test), Amplex Red fluorescence with LPC substrate
Format: biochemical
condition: 10 μM compound; autotaxin inhibition (enzyme test); read-out: % Control at 10 μM

molecule | target | remaining activity at 10 µM / %
CN(C)CCN1C(=O)[C@H]2CN(C(=O)[C@@H]3CCCN3C3CCNCC3)CCN2C(=O)c2cc(-c3ccc(Cl)cc3F)ccc21 [Compound A156] | recombinant autotaxin (Homo sapiens, UniProt Q13822) | 7
O=C1Nc2ccc(-c3ccc(Cl)cc3)cc2C(=O)N2CCN(C(=O)CO)C[C@H]12 [Compound B14] | recombinant autotaxin (Homo sapiens, UniProt Q13822) | 80
CC(C)(C)CC(=O)N1CCN2C(=O)c3cc(-c4ccc(Cl)cc4F)ccc3N(CCC3CCNCC3)C(=O)C2C1 (stereo not shown) [Compound A146] | recombinant autotaxin (Homo sapiens, UniProt Q13822) | 10
O=C1Nc2ccc(-c3ccc(Cl)cc3F)cc2C(=O)N2CCN(C(=O)[C@@H]3CCCN3C3CCOCC3)C[C@H]12 [Compound A120] | recombinant autotaxin (Homo sapiens, UniProt Q13822) | 8
CN1CCN(C(=O)CN2C(=O)[C@H]3CN(C(=O)[C@@H]4CCCN4C4CCNCC4)CCN3C(=O)c3cc(-c4ccc(Cl)cc4F)ccc32)CC1 [Compound A154] | recombinant autotaxin (Homo sapiens, UniProt Q13822) | 27
CC(C)(C)[C@H](O)C(=O)N1CCN2C(=O)c3cc(-c4ccc(Cl)cc4F)ccc3NC(=O)[C@@H]2C1 [Compound A64] | recombinant autotaxin (Homo sapiens, UniProt Q13822) | 31
O=C1Nc2ccc(-c3ccc(Cl)cc3F)cc2C(=O)N2CCN(C(=O)[C@@H]3CCCN3C3CCCCC3)C[C@H]12 [Compound A121] | recombinant autotaxin (Homo sapiens, UniProt Q13822) | 32
